Source listed as patent US20060099173A1.

- Test: clinical
- Condition description: human, in vivo
For each of the compounds below, state its Cmax.

INSERT INTO assay_data (compound, measured_parameter, result) VALUES
  ('CC1=C(/C=C/C(C)=C/C=C/C(C)=C/C(=O)O)C(C)(C)CCC1', 'Cmax', '2.01 to 5.34 ng/mL');

Switching to the query record.
**Query** Requested read-out: Cmax. Entry: Oc1ccc(O)cc1 [hydroquinone, 1,4-benzenediol]
**Result** 25.6 to 86.5 ng/mL
